The measured values listed here are drawn from patent US9328138B2.

molecular target: HCV genotype 1b (BK) NS3 modified enzyme with a R155K mutation (Hepatitis C virus genotype 1b, UniProt P26663, R1181K); construct: HCV genotype 1b (BK) NS3 modified enzyme; experiment: HCV NS3 protease time-resolved fluorescence (TRF) assay, genotype 1b R155K; format: biochemical; conditions: Ki 1b R155K, second of two values printed in the cell (not explained)
property-measured: Ki (nM)
// units = nM; emit number, no label

Lab book: Ki of C=C[C@@H]1C[C@]1(NC(=O)[C@@H]1C[C@@H]2CN1C(=O)[C@H](C1CCCCC1)NC(=O)O[C@@H]1C[C@H]1CCCCCc1c(nc3ccccc3c1OC1CC3CCC(C1)N3C(=O)OC(C)(C)C)O2)C(=O)NS(=O)(=O)C1(C)CC1 (stereo partly shown) noted as 5.3

Entry under test: C=C[C@@H]1C[C@]1(NC(=O)[C@@H]1C[C@@H]2CN1C(=O)[C@H](C(C)(C)C)NC(=O)O[C@@H]1C[C@H]1CCCCCc1c(nc3ccccc3c1OC1CC3CCC(C1)N3CCOC)O2)C(=O)NS(=O)(=O)C1(C)CC1 (single isomer, unassigned) [Example 280] . Its Ki was 0.28

For this compound ( C=C[C@@H]1C[C@]1(NC(=O)[C@@H]1C[C@@H]2CN1C(=O)[C@H](C1CCCCC1)NC(=O)O[C@@H]1C[C@H]1CCCCCc1c(nc3ccccc3c1OC1CC3COCC(C1)N3)O2)C(=O)NS(=O)(=O)C1(C)CC1 (stereo partly shown) ), measured Ki is 0.05

// sample `C=C[C@@H]1C[C@]1(NC(=O)[C@@H]1C[C@@H]2CN1C(=O)[C@H](C1CCCCC1)NC(=O)O[C@@H]1C[C@H]1CCCCCc1c(nc3ccccc3c1CN1CCN(C)CC1)O2)C(=O)NS(=O)(=O)C1(C)CC1` , its Ki was 0.044
